TARGET_OR_SYSTEM: T1, 4H566-AA
T1 chain: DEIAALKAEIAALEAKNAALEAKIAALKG
METHOD_DESCRIPTION: two-hybrid library CCmax;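 further: natural log of median RNA to DNA barcode read ratio; higher means stronger binding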
REPORTED_CONDITIONS: mean of both orientations
Threshold check on interaction score: strictly below -0.6 is TRUE; on or above -0.6 is FALSE.

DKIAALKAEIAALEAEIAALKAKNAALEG [4H2575-AA] ... TRUE
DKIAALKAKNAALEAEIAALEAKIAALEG [4H2949-AA] ... TRUE
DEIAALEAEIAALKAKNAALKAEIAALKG [4H122-AA] ... FALSE
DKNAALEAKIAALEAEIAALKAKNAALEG [4H3343-AA] ... TRUE
DKIAALKAKIAALKAKNAALKAKNAALKG [4H2944-AA] ... FALSE
